Molecular target: hemagglutinin (HA) of influenza virus H1N1 A/California/07/09 (influenza A virus)
Test: cell-based or functional assay
// neutralization titer lookup, one value per entry
Quick note: number first, unit second.

Worked examples follow.
binder	neutralization titer
MD1213 (VHH) EVQLVESGGGLVQAGGSLKLSCAASGRTYAMGWFRQAPGKEREFVAHINALGTRTYYSDSVKGRFTISRDNAKNTEYLEMNNLKPEDTAVYYCTAQGQWRAAPVAVAAEYEFWGQGTQVTVSSAAAGGGGSGGGGSGGGGSEVQLVESGGGLVQAGGSLKLSCAASGRTYAMGWFRQAPGKEREFVAHINALGTRTYYSDSVKGRFTISRDNAKNTEYLEMNNLKPEDTAVYYCTAQGQWRAAPVAVAAEYEFWGQGTQVTVSS	2.4 nM
MD1215 (VHH) EVQLVESGGGLVQAGGSLKLSCAASGRTYAMGWFRQAPGKEREFVAHINALGTRTYYSDSVKGRFTISRDNAKNTEYLEMNNLKPEDTAVYYCTAQGQWRAAPVAVAAEYEFWGQGTQVTVSSAAAGGGGSGGGGSGGGGSGGGGSGGGGGGSGGGGSGGGGSGGGGSGGGGSGGGGSGGGGSEVQLVESGGGLVQAGGSLKLSCAASGRTYAMGWFRQAPGKEREFVAHINALGTRTYYSDSVKGRFTISRDNAKNTEYLEMNNLKPEDTAVYYCTAQGQWRAAPVAVAAEYEFWGQGTQVTVSS	4.1 nM
MD1214 (bispecific antibody) EVQLVESGGGLVQPGGSLRLSCAVSISIFDIYAMDWYRQAPGKQRDLVATSFRDGSTNYADSVKGRFTISRDNAKNTLYLQMNSLKPEDTAVYLCHVSLYRDPLGVAGGMGVYWGKGALVTVSSAAAGGGGSGGGGSGGGGSEVQLVESGGGLVQAGGSLKLSCAASGRTYAMGWFRQAPGKEREFVAHINALGTRTYYSDSVKGRFTISRDNAKNTEYLEMNNLKPEDTAVYYCTAQGQWRAAPVAVAAEYEFWGQGTQVTVSS	1.4 nM

Turning to the following binder.
QUERY: Look up neutralization titer of MD1216 (bispecific antibody) EVQLVESGGGLVQPGGSLRLSCAVSISIFDIYAMDWYRQAPGKQRDLVATSFRDGSTNYADSVKGRFTISRDNAKNTLYLQMNSLKPEDTAVYLCHVSLYRDPLGVAGGMGVYWGKGALVTVSSAAAGGGGSGGGGSGGGGSGGGGSGGGGGGSGGGGSGGGGSGGGGSGGGGSGGGGSGGGGSEVQLVESGGGLVQAGGSLKLSCAASGRTYAMGWFRQAPGKEREFVAHINALGTRTYYSDSVKGRFTISRDNAKNTEYLEMNNLKPEDTAVYYCTAQGQWRAAPVAVAAEYEFWGQGTQVTVSS and report it.
RESULT: 1.4 nM
